# study.system: PDGFRB (PDGFR beta) (Homo sapiens, UniProt P09619)
# Sequence (P09619 33-1106, species assumed): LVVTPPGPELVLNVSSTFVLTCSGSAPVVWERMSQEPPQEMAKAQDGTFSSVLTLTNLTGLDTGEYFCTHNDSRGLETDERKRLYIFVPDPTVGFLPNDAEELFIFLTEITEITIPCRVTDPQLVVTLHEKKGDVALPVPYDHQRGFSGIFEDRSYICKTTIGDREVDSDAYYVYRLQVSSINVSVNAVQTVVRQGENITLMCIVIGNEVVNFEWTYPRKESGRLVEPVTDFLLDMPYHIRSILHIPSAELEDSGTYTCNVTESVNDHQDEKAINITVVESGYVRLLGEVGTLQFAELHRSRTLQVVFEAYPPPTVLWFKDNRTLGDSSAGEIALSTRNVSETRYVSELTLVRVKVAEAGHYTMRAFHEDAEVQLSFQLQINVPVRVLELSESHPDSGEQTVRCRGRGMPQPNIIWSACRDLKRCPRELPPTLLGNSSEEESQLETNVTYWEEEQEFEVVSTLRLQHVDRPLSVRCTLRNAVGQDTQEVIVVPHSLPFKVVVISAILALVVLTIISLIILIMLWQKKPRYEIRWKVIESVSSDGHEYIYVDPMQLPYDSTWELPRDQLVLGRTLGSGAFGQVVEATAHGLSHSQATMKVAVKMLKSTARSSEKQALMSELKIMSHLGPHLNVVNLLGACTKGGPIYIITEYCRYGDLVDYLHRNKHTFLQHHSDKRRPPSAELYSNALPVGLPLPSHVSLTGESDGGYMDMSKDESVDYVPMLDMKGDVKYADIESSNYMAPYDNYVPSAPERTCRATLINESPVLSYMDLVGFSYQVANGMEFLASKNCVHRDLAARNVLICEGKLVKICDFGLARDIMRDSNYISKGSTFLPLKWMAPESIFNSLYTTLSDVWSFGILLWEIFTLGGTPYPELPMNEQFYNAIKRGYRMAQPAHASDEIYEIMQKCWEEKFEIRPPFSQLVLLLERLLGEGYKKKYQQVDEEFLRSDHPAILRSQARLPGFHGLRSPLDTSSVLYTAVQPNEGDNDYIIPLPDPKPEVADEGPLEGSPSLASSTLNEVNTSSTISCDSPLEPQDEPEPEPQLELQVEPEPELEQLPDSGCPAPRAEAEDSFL
# assay.procedure: FRET-based coupled-enzyme protein kinase inhibition assay
# Assay type: biochemical
# measurement.conditions: compound at 10 µM, 1% DMSO
# inhibition at 10 µM per record follows

molecule: Nc1ncnc2c1ncn2[C@@H]1O[C@H](COC(=O)N2CCC(Cc3ccc(F)cc3)C2)[C@@H](O)[C@H]1O (stereo partly shown)
result.unit: %
inhibition at 10 µM: 4

molecule: CN1CCN(CCNC(=O)OC[C@H]2O[C@@H](n3cnc4c(N)ncnc43)[C@H](O)[C@@H]2O)CC1
result.unit: %
inhibition at 10 µM: 1

molecule: CS(=O)(=O)N1CC2(CCN(C(=O)OC[C@H]3O[C@@H](n4cnc5c(N)ncnc54)[C@H](O)[C@@H]3O)CC2)c2ccccc21
result.unit: %
inhibition at 10 µM: 10

molecule: Nc1ncnc2c1ncn2[C@@H]1O[C@H](COC(=O)NCCN2CCCC2=O)[C@@H](O)[C@H]1O
result.unit: %
inhibition at 10 µM: 4

molecule: Nc1ncnc2c1ncn2[C@@H]1O[C@H](COC(=O)NC[C@H](O)CO)[C@@H](O)[C@H]1O
result.unit: %
inhibition at 10 µM: 5

molecule: Nc1ncnc2c1ncn2[C@@H]1O[C@H](COC(=O)NCCCc2nc3ccccc3[nH]2)[C@@H](O)[C@H]1O
result.unit: %
inhibition at 10 µM: 1

molecule: C[C@@H](NC(=O)OC[C@H]1O[C@@H](n2cnc3c(N)ncnc32)[C@H](O)[C@@H]1O)c1ccc(Cl)cc1
result.unit: %
inhibition at 10 µM: 5

---

# study.system: AMPK A1/B1/G1 (Homo sapiens, UniProt Q13131)
# Sequence (Q13131 whole entry): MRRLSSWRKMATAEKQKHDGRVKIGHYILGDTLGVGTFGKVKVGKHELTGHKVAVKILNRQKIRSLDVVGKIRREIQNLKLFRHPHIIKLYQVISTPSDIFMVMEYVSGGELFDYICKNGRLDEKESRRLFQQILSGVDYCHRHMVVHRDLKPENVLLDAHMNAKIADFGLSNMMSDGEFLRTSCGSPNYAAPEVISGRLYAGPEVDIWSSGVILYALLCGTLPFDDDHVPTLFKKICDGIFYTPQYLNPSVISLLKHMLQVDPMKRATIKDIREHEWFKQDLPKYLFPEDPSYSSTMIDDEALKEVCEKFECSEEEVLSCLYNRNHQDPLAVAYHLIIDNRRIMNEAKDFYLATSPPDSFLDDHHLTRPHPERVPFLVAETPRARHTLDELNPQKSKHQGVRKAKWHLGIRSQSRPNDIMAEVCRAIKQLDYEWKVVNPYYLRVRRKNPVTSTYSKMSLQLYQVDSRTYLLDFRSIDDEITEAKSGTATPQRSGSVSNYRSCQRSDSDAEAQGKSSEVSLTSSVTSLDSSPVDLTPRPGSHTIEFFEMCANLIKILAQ
# Sequence (Q9Y478 whole entry partner): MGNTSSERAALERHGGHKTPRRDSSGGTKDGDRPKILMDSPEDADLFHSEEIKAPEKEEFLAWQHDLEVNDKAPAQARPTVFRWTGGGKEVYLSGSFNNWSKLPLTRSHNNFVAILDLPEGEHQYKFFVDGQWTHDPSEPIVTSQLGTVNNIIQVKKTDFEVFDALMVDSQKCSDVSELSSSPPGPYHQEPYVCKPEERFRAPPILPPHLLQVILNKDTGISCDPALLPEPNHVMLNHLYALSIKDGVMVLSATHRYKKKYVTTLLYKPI
# Sequence (P54619 whole entry partner): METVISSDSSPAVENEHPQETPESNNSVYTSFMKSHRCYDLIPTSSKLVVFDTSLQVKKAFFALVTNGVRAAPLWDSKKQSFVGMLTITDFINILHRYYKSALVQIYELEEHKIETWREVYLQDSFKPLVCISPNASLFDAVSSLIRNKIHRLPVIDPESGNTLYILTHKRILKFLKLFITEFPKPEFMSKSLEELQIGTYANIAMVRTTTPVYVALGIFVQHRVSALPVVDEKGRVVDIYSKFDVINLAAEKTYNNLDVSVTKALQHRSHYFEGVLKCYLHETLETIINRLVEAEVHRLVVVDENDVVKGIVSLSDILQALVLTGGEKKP
# assay.procedure: FRET-based coupled-enzyme protein kinase inhibition assay
# Assay type: biochemical
# measurement.conditions: compound at 10 µM, 1% DMSO
Is inhibition at 10 µM at least 4%? Then Satisfied. If not, Not satisfied.

compound: CC(C)N1CCC(NC(=O)OC[C@H]2O[C@@H](n3cnc4c(N)ncnc43)[C@H](O)[C@@H]2O)CC1 [Compound C19]
class.assignment: Satisfied
//
compound: Nc1ncnc2c1ncn2[C@@H]1O[C@H](COC(=O)N2CCN(Cc3ccccc3)CC2CO)[C@@H](O)[C@H]1O (stereo partly shown) [Compound C13]
class.assignment: Satisfied
//
compound: N#CCCN1CCN(C(=O)OC[C@H]2O[C@@H](n3cnc4c(N)ncnc43)[C@H](O)[C@@H]2O)CC1 [Compound C70]
class.assignment: Satisfied
//
compound: Nc1ncnc2c1ncn2[C@@H]1O[C@H](COC(=O)N2CCN(C(=O)N3CCOCC3)CC2)[C@@H](O)[C@H]1O [Compound C89]
class.assignment: Not satisfied
//
compound: Nc1ncnc2c1ncn2[C@@H]1O[C@H](COC(=O)NCCCc2nc3ccccc3[nH]2)[C@@H](O)[C@H]1O [Compound C1]
class.assignment: Satisfied
//
compound: CS(=O)(=O)N1CC2(CCN(C(=O)OC[C@H]3O[C@@H](n4cnc5c(N)ncnc54)[C@H](O)[C@@H]3O)CC2)c2ccccc21 [Compound C98]
class.assignment: Satisfied
//
compound: C[C@@H](NC(=O)OC[C@H]1O[C@@H](n2cnc3c(N)ncnc32)[C@H](O)[C@@H]1O)c1ccc(Cl)cc1 [Compound C4]
class.assignment: Satisfied
//
compound: Nc1ncnc2c1ncn2[C@@H]1O[C@H](COC(=O)N[C@@H]2CCN(Cc3ccccc3)C2)[C@@H](O)[C@H]1O [Compound C10]
class.assignment: Satisfied
//
compound: Nc1ncnc2c1ncn2[C@@H]1O[C@H](COC(=O)N2CCN(CCc3ccccc3)CC2)[C@@H](O)[C@H]1O [Compound C26]
class.assignment: Not satisfied
//
compound: Nc1ncnc2c1ncn2[C@@H]1O[C@H](COC(=O)N2CCC(Cc3ccc(F)cc3)C2)[C@@H](O)[C@H]1O (stereo partly shown) [Compound C66]
class.assignment: Satisfied
//
compound: Nc1ncnc2c1ncn2[C@@H]1O[C@H](COC(=O)NC[C@H](O)CO)[C@@H](O)[C@H]1O [Compound C8]
class.assignment: Satisfied

---

# study.system: MAPK14 (p38 alpha) (Homo sapiens, UniProt Q16539)
# Sequence (Q16539 whole entry, species assumed): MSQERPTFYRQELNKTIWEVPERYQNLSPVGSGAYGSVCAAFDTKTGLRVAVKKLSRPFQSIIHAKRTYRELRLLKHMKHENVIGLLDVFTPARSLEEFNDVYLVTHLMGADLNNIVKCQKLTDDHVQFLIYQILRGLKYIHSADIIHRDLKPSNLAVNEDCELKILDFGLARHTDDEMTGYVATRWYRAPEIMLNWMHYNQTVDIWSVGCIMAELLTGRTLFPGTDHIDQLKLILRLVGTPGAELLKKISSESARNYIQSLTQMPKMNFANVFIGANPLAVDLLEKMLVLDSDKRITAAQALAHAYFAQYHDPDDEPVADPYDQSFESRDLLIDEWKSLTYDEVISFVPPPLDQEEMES
# assay.procedure: FRET-based coupled-enzyme protein kinase inhibition assay
# Type: biochemical
# measurement.conditions: compound at 10 µM, 1% DMSO
readout.kind: inhibition at 10 µM (%)

compound: Nc1ncnc2c1ncn2[C@@H]1O[C@H](COC(=O)NC[C@H](O)CO)[C@@H](O)[C@H]1O [Compound C8]
value.measured: -3
--
compound: Nc1ncnc2c1ncn2[C@@H]1O[C@H](COC(=O)N2CCN(C(=O)N3CCOCC3)CC2)[C@@H](O)[C@H]1O [Compound C89]
value.measured: -2
--
compound: CN1CCN(CCNC(=O)OC[C@H]2O[C@@H](n3cnc4c(N)ncnc43)[C@H](O)[C@@H]2O)CC1 [Compound C46]
value.measured: 5
--
compound: CC(C)N1CCC(NC(=O)OC[C@H]2O[C@@H](n3cnc4c(N)ncnc43)[C@H](O)[C@@H]2O)CC1 [Compound C19]
value.measured: -1
--
compound: Nc1ncnc2c1ncn2[C@@H]1O[C@H](COC(=O)N2CCS(=O)(=O)CC2)[C@@H](O)[C@H]1O [Compound C100]
value.measured: -4
--
compound: Nc1ncnc2c1ncn2[C@@H]1O[C@H](COC(=O)N2CCN(Cc3ccccc3)CC2CO)[C@@H](O)[C@H]1O (stereo partly drawn) [Compound C13]
value.measured: 0
--
compound: Nc1ncnc2c1ncn2[C@@H]1O[C@H](COC(=O)N2CCN(CCc3ccccc3)CC2)[C@@H](O)[C@H]1O [Compound C26]
value.measured: -6
--
compound: Nc1ncnc2c1ncn2[C@@H]1O[C@H](COC(=O)NCCN2CCCC2=O)[C@@H](O)[C@H]1O [Compound C22]
value.measured: -1
--
compound: C[C@@H](NC(=O)OC[C@H]1O[C@@H](n2cnc3c(N)ncnc32)[C@H](O)[C@@H]1O)c1ccc(Cl)cc1 [Compound C4]
value.measured: -1

---

# study.system: UniProt:P11309
# Sequence (P11309 whole entry, species assumed): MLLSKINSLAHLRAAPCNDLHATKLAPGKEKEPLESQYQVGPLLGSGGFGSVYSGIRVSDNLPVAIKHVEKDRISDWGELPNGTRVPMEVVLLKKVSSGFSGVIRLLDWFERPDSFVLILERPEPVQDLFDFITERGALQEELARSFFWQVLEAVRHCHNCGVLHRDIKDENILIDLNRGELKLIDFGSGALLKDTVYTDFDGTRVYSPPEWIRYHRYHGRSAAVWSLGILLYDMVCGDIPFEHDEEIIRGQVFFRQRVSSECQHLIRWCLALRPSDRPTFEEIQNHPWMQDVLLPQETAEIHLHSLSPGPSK
# assay.procedure: FRET-based coupled-enzyme protein kinase inhibition assay
# Assay type: biochemical
# measurement.conditions: compound at 10 µM, 1% DMSO
The entries below come with measured inhibition at 10 µM values attached.
readout.kind: inhibition at 10 µM (%)

compound: C[C@@H](NC(=O)OC[C@H]1O[C@@H](n2cnc3c(N)ncnc32)[C@H](O)[C@@H]1O)c1ccc(Cl)cc1
result.unit: %
value.measured: -8
--
compound: Nc1ncnc2c1ncn2[C@@H]1O[C@H](COC(=O)N2CCC(Cc3ccc(F)cc3)C2)[C@@H](O)[C@H]1O (stereo partly shown)
result.unit: %
value.measured: 7
--
compound: Nc1ncnc2c1ncn2[C@@H]1O[C@H](COC(=O)NCCCc2nc3ccccc3[nH]2)[C@@H](O)[C@H]1O
result.unit: %
value.measured: -2
--
compound: N#CCCN1CCN(C(=O)OC[C@H]2O[C@@H](n3cnc4c(N)ncnc43)[C@H](O)[C@@H]2O)CC1
result.unit: %
value.measured: 5

---

Recorded inhibition at 10 µM for the following compounds
# study.system: PRKACA (PKA) (Homo sapiens)
# assay.procedure: FRET-based coupled-enzyme protein kinase inhibition assay
# Assay type: biochemical
# measurement.conditions: compound at 10 µM, 1% DMSO

compound: Nc1ncnc2c1ncn2[C@@H]1O[C@H](COC(=O)N2CCC(Cc3ccc(F)cc3)C2)[C@@H](O)[C@H]1O (stereo partly drawn) [Compound C66]
inhibition at 10 µM: 1%
//
compound: Nc1ncnc2c1ncn2[C@@H]1O[C@H](COC(=O)NC[C@H](O)CO)[C@@H](O)[C@H]1O [Compound C8]
inhibition at 10 µM: 43%
//
compound: Nc1ncnc2c1ncn2[C@@H]1O[C@H](COC(=O)N2CCN(CCc3ccccc3)CC2)[C@@H](O)[C@H]1O [Compound C26]
inhibition at 10 µM: -1%
//
compound: C[C@@H](NC(=O)OC[C@H]1O[C@@H](n2cnc3c(N)ncnc32)[C@H](O)[C@@H]1O)c1ccc(Cl)cc1 [Compound C4]
inhibition at 10 µM: 20%
//
compound: N#CCCN1CCN(C(=O)OC[C@H]2O[C@@H](n3cnc4c(N)ncnc43)[C@H](O)[C@@H]2O)CC1 [Compound C70]
inhibition at 10 µM: -4%
//
compound: Nc1ncnc2c1ncn2[C@@H]1O[C@H](COC(=O)N2CCS(=O)(=O)CC2)[C@@H](O)[C@H]1O [Compound C100]
inhibition at 10 µM: -3%

---

# study.system: EPHA2 (Homo sapiens)
# Sequence (P29317 24-976, species assumed): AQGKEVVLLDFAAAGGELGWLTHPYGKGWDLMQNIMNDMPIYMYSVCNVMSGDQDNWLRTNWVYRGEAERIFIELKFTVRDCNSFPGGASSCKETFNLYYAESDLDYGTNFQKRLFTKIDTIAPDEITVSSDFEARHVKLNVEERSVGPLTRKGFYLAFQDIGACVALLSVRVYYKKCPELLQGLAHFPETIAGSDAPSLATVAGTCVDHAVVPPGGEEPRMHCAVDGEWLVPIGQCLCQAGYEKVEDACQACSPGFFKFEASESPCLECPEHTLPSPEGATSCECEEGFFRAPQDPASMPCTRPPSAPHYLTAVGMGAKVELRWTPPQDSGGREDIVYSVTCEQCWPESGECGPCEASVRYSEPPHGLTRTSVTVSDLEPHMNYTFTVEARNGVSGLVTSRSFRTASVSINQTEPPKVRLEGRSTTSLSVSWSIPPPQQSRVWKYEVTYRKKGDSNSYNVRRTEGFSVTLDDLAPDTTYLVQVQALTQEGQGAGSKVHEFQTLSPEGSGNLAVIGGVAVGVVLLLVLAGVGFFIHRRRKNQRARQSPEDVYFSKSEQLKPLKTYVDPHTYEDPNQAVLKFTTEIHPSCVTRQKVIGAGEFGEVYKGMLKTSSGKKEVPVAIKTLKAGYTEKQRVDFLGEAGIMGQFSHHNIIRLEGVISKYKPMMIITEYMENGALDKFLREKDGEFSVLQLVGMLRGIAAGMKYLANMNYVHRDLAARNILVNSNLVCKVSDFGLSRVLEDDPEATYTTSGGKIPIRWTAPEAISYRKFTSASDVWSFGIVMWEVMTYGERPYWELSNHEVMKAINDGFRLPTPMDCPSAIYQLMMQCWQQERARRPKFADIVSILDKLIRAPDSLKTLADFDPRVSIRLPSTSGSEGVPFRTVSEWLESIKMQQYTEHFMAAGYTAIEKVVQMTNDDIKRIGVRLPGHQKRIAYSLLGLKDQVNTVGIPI
# assay.procedure: FRET-based coupled-enzyme protein kinase inhibition assay
# Format: biochemical
# measurement.conditions: compound at 10 µM, 1% DMSO

given.smiles: Nc1ncnc2c1ncn2[C@@H]1O[C@H](COC(=O)N2CCC[C@H]2CO)[C@@H](O)[C@H]1O
inhibition at 10 µM, %: 5
//
given.smiles: Nc1ncnc2c1ncn2[C@@H]1O[C@H](COC(=O)N[C@@H]2CCN(Cc3ccccc3)C2)[C@@H](O)[C@H]1O
inhibition at 10 µM, %: 9
//
given.smiles: CN1CCN(CCNC(=O)OC[C@H]2O[C@@H](n3cnc4c(N)ncnc43)[C@H](O)[C@@H]2O)CC1
inhibition at 10 µM, %: 3
//
given.smiles: Nc1ncnc2c1ncn2[C@@H]1O[C@H](COC(=O)NCCCc2nc3ccccc3[nH]2)[C@@H](O)[C@H]1O
inhibition at 10 µM, %: 8
//
given.smiles: C[C@@H](NC(=O)OC[C@H]1O[C@@H](n2cnc3c(N)ncnc32)[C@H](O)[C@@H]1O)c1ccc(Cl)cc1
inhibition at 10 µM, %: 4
//
given.smiles: CS(=O)(=O)N1CC2(CCN(C(=O)OC[C@H]3O[C@@H](n4cnc5c(N)ncnc54)[C@H](O)[C@@H]3O)CC2)c2ccccc21
inhibition at 10 µM, %: 5
//
given.smiles: Nc1ncnc2c1ncn2[C@@H]1O[C@H](COC(=O)NC[C@H](O)CO)[C@@H](O)[C@H]1O
inhibition at 10 µM, %: 12
